These data points were gathered from ChEMBL document CHEMBL1123331.

Consider the following compounds and their measured pKi readings.
Target: Cytidine deaminase (Mus musculus, UniProt P56389)
Sequence (P56389 whole entry): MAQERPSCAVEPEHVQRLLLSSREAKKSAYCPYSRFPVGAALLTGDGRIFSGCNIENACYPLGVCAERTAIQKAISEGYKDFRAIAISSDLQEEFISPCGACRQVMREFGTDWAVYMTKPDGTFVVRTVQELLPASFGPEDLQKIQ
pKi: −log10 of the molar value.
readout kind: pKi

>>> endpoint_value("O=C1NC(C(O)O)CCN1C1O[C@H](CO)[C@@H](O)[C@H]1O (stereo not given in full)")
4.70
>>> endpoint_value("O=C1NC=CCN1C1O[C@H](CO)[C@@H](O)[C@H]1O (stereo not given in full)")
5.40
>>> endpoint_value("OC[C@H]1O[C@@H](n2cnc3cncnc32)[C@H](O)[C@@H]1O [NEBULARINE]")
5.00
>>> endpoint_value("O=c1nc(CO)ccn1C1O[C@H](CO)[C@@H](O)[C@H]1O (stereo not given in full)")
4.00
>>> endpoint_value("O=C1NCC=CN1[C@@H]1O[C@H](CO)[C@@H](O)[C@H]1O")
5.40
